# testProtocol: folding enthalpy; higher = less favourable; fluorescence melt of hairpins on a sequencing array, two-state fit
# testParameters: sodium 0.088 M
measurementName: folding enthalpy (kcal/mol)
Give just the numeric value; kcal/mol need not be written.

Request: Complete the entry with folding enthalpy for GATCTCTGCTGAGATC ((((((....))))))
Result: -45.9

Request: For GTCTTAGGAAACTGAGAC ((((.((....)).)))) , write its folding enthalpy.
Result: -30.7

Request: Supply folding enthalpy value. Item: GATCCACAGCTGGATC ((((((....))))))
Result: -31.7

Request: Item GATCGGATGCCCGATC ((((((....)))))) : provide folding enthalpy
Result: -27

Request: Report folding enthalpy, nothing else, for this sequence: GAGCGCGAAAGCGTACTC ((((((....)))..)))
Result: -12.1

Request: Answer with the recorded folding enthalpy of GGAAGCGAAAGCTTTCC ((((((....))).))) only.
Result: -30.2

Request: Respond only with folding enthalpy recorded for GTGTGTCGAAAGACCCAC (((.(((....))).)))
Result: -29

Request: Look up and report measured folding enthalpy for this entry: GCGCCGCGAAAGCTTCGC (((..((....))..)))
Result: -15.6

Request: Return folding enthalpy (reported value) for this sequence: GATCCTTTGTAGGATC ((((((....))))))
Result: -39.7

Request: Tell us which folding enthalpy value is on record for GGATAAGAAATTATCC ((((((....))))))
Result: -27.6

Request: Look up and state reported folding enthalpy for GTGTGTGGAAACACATGC (..((((....))))..)
Result: -18.8

Request: Specify measured folding enthalpy for GCGTCGCGAAAGCTACGC ((((.((....)).)))) .
Result: -29.4

Request: Using the record for GTGAATACGAAAGTACAC (((..(((....)))))) , state its measured folding enthalpy.
Result: -12.5

Request: Note folding enthalpy for the sequence shown: GCGACTCGAAAGAGCGC (((.(((....))))))
Result: -32.7
